Test target: human CCR2B (Homo sapiens (Human), UniProt P41597)
Sequence (P41597 other isoform, or with tags, fused parts or gaps): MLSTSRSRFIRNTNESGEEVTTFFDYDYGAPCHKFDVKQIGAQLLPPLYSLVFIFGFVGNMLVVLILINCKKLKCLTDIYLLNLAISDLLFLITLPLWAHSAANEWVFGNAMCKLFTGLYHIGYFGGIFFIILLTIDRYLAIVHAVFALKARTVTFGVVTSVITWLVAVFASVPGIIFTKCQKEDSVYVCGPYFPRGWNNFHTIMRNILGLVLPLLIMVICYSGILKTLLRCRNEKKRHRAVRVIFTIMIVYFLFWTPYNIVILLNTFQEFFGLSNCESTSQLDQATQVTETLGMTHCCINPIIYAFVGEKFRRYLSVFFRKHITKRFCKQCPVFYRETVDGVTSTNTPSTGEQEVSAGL
Assay protocol: Inhibition of native agonist (human MCP-1)-induced intracellular calcium release, calcium flux assay in CHO cells expressing human CCR2B and Gα16
Type: cell-based
Applied conditions: calcium flux, human MCP-1 2 nM; read-out: hCCR2B IC50
Rule: IC50 below 1000 nM gives Fulfilled. Equal to or above 1000 nM gives Not fulfilled.

mol=C[C@H]1COCC[C@@H]1N[C@@H]1C[C@H]2CCC[C@@]2(C(=O)N2C[C@@H]3C[C@H]2CN3c2cc(C(F)(F)F)ccn2)C1 category=Fulfilled
mol=CO[C@@H]1COCC[C@@H]1N[C@@H]1C[C@H]2CCC[C@@]2(C(=O)N2C[C@@H]3C[C@H]2CN3c2cccc(C(F)(F)F)c2C)C1 category="Not fulfilled"
mol=CO[C@@H]1COCC[C@@H]1N[C@@H]1C[C@H]2CCC[C@@]2(C(=O)N2[C@@H]3CC[C@H]2CN(c2cc(C(F)(F)F)ccn2)C3)C1 category="Not fulfilled"
mol=CO[C@@H]1COCC[C@@H]1N[C@@H]1C[C@H]2CCC[C@@]2(C(=O)N2C[C@@H]3C[C@H]2CN3c2nccc(C(F)(F)F)c2F)C1 category=Fulfilled
mol=CO[C@@H]1COCC[C@@H]1N[C@@H]1C[C@H]2CCC[C@@]2(C(=O)N2C[C@@H]3C[C@H]2CN3c2cc(C#N)ccc2C(F)(F)F)C1 category=Fulfilled
mol=O=C(O)c1cccc(C2CCN([C@@H]3C[C@H]4CCC[C@@]4(C(=O)N4C[C@@H]5C[C@H]4CN5c4cc(C(F)(F)F)ccn4)C3)CC2)c1 category="Not fulfilled"

Provenance of the data: patent US8906911B2
